tested on: HepG2; experiment: MTT antiproliferative assay, HepG2; type: cell-based, human; details: Homo sapiens, HepG2, 48 h, mean of three experiments ± SD
Parameter: IC50. Scope: all listed entries.
Report as a plain number; the unit µM is understood.

The cases that follow already have their IC50 on record.
The reported IC50 of the compound COc1ccc(NC(=O)CCCC(=O)OC2CCC3(C)C4CCC5(C)C(C(C)C=CC(C)C(C)C)CCC5C45C=CC3(C2)OO5)cc1 (stereo not drawn) [Compound 3g] was 15.5

The reported IC50 of the compound CC(C)C(C)C=CC(C)C1CCC2C1(C)CCC1C23C=CC2(CC(OC(=O)c4ccccc4C(=O)Nc4nncs4)CCC12C)OO3 (stereo not drawn) [Compound 4a] was 8.08

# evaluate next
The reported IC50 of the compound CC(C)C(C)C=CC(C)C1CCC2C1(C)CCC1C23C=CC2(CC(OC(=O)CCCC(=O)Nc4nc5ccc(F)cc5s4)CCC12C)OO3 (stereo not drawn) [Compound 3d] was 14.7
